system: RXF 393; assay: NCI tumour cell line growth inhibition, 48 h
Calls of active or inactive are those of the source. Cut-off read from the data, not from the text of the source: active = GI50 up to about 1.1 µM and inactive = higher.
Catalogue of compounds with associated GI50

The cases that follow already have their GI50 on record.
State the recorded GI50 for this entry: `CCSCN(C)c1nc(N(C)C)nc(N(C)C)n1`
14.2 µM (inactive)

State the recorded GI50 for this entry: `COc1ccc2nc(-c3ccccc3)c(=O)[nH]c2c1`
> 100 µM (inactive)

State the recorded GI50 for this entry: `COc1ccc(C(=O)O)c(Br)c1OCc1ccccc1`
> 100 µM (inactive)

State the recorded GI50 for this entry: CCCCCCCCCCCCCCCCNc1nc(=O)n(C2CC(O)C(CO)O2)cc1F (centres undefined)
13.5 µM (inactive)

State the recorded GI50 for this entry: `[O-][n+]1onc2c3nn(-c4ccccc4)nc3ccc21`
> 65.9 µM (inactive)

Further cases:
State the recorded GI50 for this entry: `COc1cc(C=O)cc(O)c1O`
> 10 µM (inactive)

State the recorded GI50 for this entry: `O=C(O)CN1C(=O)c2ccc(NC(=O)C(=O)O)cc2S1(=O)=O`
> 100 µM (inactive)

State the recorded GI50 for this entry: COC(=O)[C@@]12C(=O)CCC(=O)C1C1C(=CC2C)O[C@@H]2OC3(CCCCC3)O[C@H]12 (some centres undefined)
69.2 µM (inactive)

State the recorded GI50 for this entry: CC(=O)Oc1c2c(c(O)c3ccccc13)C(n1cnc3c(ncn3C3OC(CO)C4OC(C)(C)OC43)c1=N)CCC2 (centres undefined)
18.3 µM (inactive)

====

Catalogue of compounds with associated GI50
tested on: UO-31; test: NCI tumour cell line growth inhibition, 48 h
The source made the active and inactive calls. Cut-off read from the data, not from the text of the source: active = GI50 up to about 1.1 µM and inactive = higher.

State the recorded GI50 for this entry: C=CCC1CC(n2cc(C)c(=O)[nH]c2=O)OC1CO[Si](C)(C)C(C)(C)C (stereo unspecified)
11.4 µM (inactive)

State the recorded GI50 for this entry: [O-][S+]1c2ccccc2N=C(c2cccs2)CC1c1ccccc1O (stereo unspecified)
> 100 µM (inactive)

State the recorded GI50 for this entry: `CC(=O)CC(=O)CCCC(=O)Nc1ccc(Cl)cc1C`
> 100 µM (inactive)

State the recorded GI50 for this entry: `Nc1nc(-c2ccccc2)c(CC(=O)O)s1`
> 100 µM (inactive)

State the recorded GI50 for this entry: CCCOC(=O)C1CCC(=O)N1C(=O)C(Cl)Cl (stereo unspecified)
> 100 µM (inactive)

State the recorded GI50 for this entry: `O=[N+]([O-])c1cc2c(cc1O)[nH]c1cccc([N+](=O)[O-])c12`
> 100 µM (inactive)

Further cases:
State the recorded GI50 for this entry: COC(=O)[C@@]12C(=O)CCC(=O)C1C1C(=CC2C)O[C@@H]2OC3(CCCCC3)O[C@H]12 (stereo partly specified)
> 100 µM (inactive)

State the recorded GI50 for this entry: `CS(=O)(=O)Nc1ccc(N2Cc3c[nH]c4ccc5nccc2c5c34)cc1`
> 100 µM (inactive)

State the recorded GI50 for this entry: `O=C1OC(c2ccccc2)=N/C1=C\c1cccc2ccccc12`
> 100 µM (inactive)

State the recorded GI50 for this entry: `CCc1c(O)nc(Nc2nc3ccccc3[nH]2)[nH]c1=O`
> 100 µM (inactive)

State the recorded GI50 for this entry: CCNC(=O)C(C)C1CCC2(C)C=CC(=O)C(C)=C2C1O (stereo unspecified)
> 73.6 µM (inactive)
